Target: HLA-B*14:02
Assay: IEDB peptide-MHC binding, purified MHC/competitive/fluorescence; bounds were set here for any values at or beyond the usual limits of such assays
Conditions: source organism: Monodelphis domestica
reported metric: IC50

IC50 on HLA-B*14:02 for `LEYFQFVKKLL` is ≥ 20 µM

###

Target: HLA-B*45:01
Assay: IEDB peptide-MHC binding, purified MHC/competitive/radioactivity; filed as Kd, often an IC50 or EC50 that approximates it; bounds were set here for any values at or beyond the usual limits of such assays
Settings: source organism: Mammarenavirus machupoense
reported metric: Kd

The measured Kd associated with `ADMSKLLNL` reads ≥ 77.7 µM
